Can you tell me GI50 for the items I'm about to list?
- assay_name: Growth inhibition against human IGROV-ET cells after 72 hrs by inverted microscopy
- Format: functional
Structures can show the parent of a compound that is named as a salt.

These solved cases illustrate the format of a correct answer.
INSERT INTO results (compound, test_value) VALUES
  ('C[C@@]1(C(=O)O)CCC[C@@]2(C)C3=CC[C@H]4C[C@@]3(CC[C@H]12)C[C@]41CO1', '> 9.48 µM'),
  ('COC(=O)[C@]1(C)CCC[C@]2(C)[C@@H]1CC[C@@]13C[C@H](C[C@H]4O[C@]412)[C@]1(CO1)C3', '> 8.66 µM'),
  ('COC(=O)[C@]1(C)CCC[C@@]2(C)[C@@H]3[C@@H](O)C[C@H]4C[C@@]3(CC[C@@H]21)C[C@@H]4CO', '> 8.56 µM'),
  ('COC(=O)[C@]1(C)CCC[C@@]2(C)[C@@H]3[C@H](O)C[C@H]4C[C@@]3(CC[C@@H]21)C[C@@H]4CO', '> 8.56 µM'),
  ('COC(=O)[C@]1(C)CCC[C@@]2(C)C3=CC[C@H]4C[C@@]3(CC[C@H]12)CC4CO (mixture of isomers)', '> 9.02 µM'),
  ('C=C1C[C@@]23CC[C@H]4[C@@](C)(CCC[C@@]4(C)C(=O)OC)[C@@H]2CC[C@H]1C3', '> 9.48 µM'),
  ('COC(=O)[C@]1(C)CCC[C@]2(C)[C@@H]1CC[C@@]13C[C@H](C[C@H]4O[C@]412)[C@@]1(CO1)C3', '> 8.66 µM'),
  ('COC(=O)[C@]1(C)CCC[C@@]2(C)[C@@H]3CC[C@H]4C[C@]3(C=C4C)CC[C@@H]21', '> 9.48 µM'),
  ('COC(=O)[C@]1(C)CCC[C@@]2(C)[C@@H]3CC[C@@H]4C[C@@]3(CC[C@@H]21)C[C@@H]4CO', '7.23 µM'),
  ('C=C1C[C@@]23CC[C@H]4[C@@](C)(CCC[C@@]4(C)C(=O)O)[C@@H]2CC[C@@H]1C3 [KAURENOIC ACID]', '> 9.92 µM');

List GI50 for every entry below, keeping the order given.
1. COC(=O)[C@]1(C)CCC[C@@]2(C)[C@@H]3CC[C@H]4C[C@@]3(CC[C@@H]21)C[C@H]4C=O
2. COC(=O)[C@]1(C)CCC[C@@]2(C)[C@@H]3CC[C@H]4C[C@@]3(CC[C@@H]21)[C@@H](O)[C@@H]4C

[A]
1: > 9.02 µM; 2: > 9.02 µM

List GI50 for every entry below, keeping the order given.
1. C=C1[C@H]2CC[C@H]3[C@]4(C)CCC[C@@](C)(C(=O)OC)[C@H]4CC[C@]3(C2)[C@H]1O
2. COC(=O)[C@]1(C)CCC[C@@]2(C)[C@@H]3CC[C@H]4C[C@@]3(CC[C@@H]21)C[C@]41CO1
3. COC(=O)[C@]1(C)CCC[C@@]2(C)[C@@H]3CC[C@H]4C[C@@]3(CC[C@@H]21)C[C@@H]4C=O
4. COc1cccc2c1C(=O)c1c(O)c3c(c(O)c1C2=O)C[C@@](O)(C(=O)CO)C[C@@H]3O[C@H]1C[C@H](N)[C@H](O)[C@H](C)O1 [DOXORUBICIN HYDROCHLORIDE]

[A]
1. > 9.02 µM
2. > 9.02 µM
3. > 9.02 µM
4. 6.17 µM

* * *

- Test system: HT-29
- assay_name: Growth inhibition against human HT-29 cells after 72 hrs by inverted microscopy
- Assay type: functional
- details: HT-29, 72 h
Structures can show the parent of a compound that is named as a salt.
reported_metric: GI50

These solved cases illustrate the format of a correct answer.
INSERT INTO measurements (compound, test_value) VALUES
  ('COC(=O)[C@]1(C)CCC[C@@]2(C)[C@@H]3CC[C@H]4C[C@]3(C=C4C)CC[C@@H]21', '> 9.48 µM'),
  ('COC(=O)[C@]1(C)CCC[C@@]2(C)[C@@H]3[C@H](O)C[C@H]4C[C@@]3(CC[C@@H]21)C[C@@H]4CO', '> 8.56 µM'),
  ('COc1cccc2c1C(=O)c1c(O)c3c(c(O)c1C2=O)C[C@@](O)(C(=O)CO)C[C@@H]3O[C@H]1C[C@H](N)[C@H](O)[C@H](C)O1 [DOXORUBICIN HYDROCHLORIDE]', '0.15 µM');

Turning now to a further record.
[Q] Need GI50, item `COC(=O)[C@]1(C)CCC[C@@]2(C)[C@@H]3CC[C@@H]4C[C@@]3(CC[C@@H]21)C[C@@H]4CO`
[A] > 9.02 µM
